Source: ChEMBL document CHEMBL4725250

- ASSAY TEXT: Metabolic stability in rat liver microsomes assessed as apparent intrinsic clearance
- Type: ADME, Microsome
- CONDITION LABEL: read-out: CLH
Labelling: microsomal CLint reported below 70 µL/min/mg becomes 1; at or above becomes 0.

// query Input COC[C@]12C[C@H]1[C@@](C)(c1cc(/C=C(\F)c3ccc(C#N)cn3)ccc1F)N=C(N)S2 ; condition: microsomal CLint strictly below 70 µL/min/mg. Does it hold?
// result 1

// query Input C[C@]1(c2cc(/C=C(\F)c3ccc(C#N)cn3)ccc2F)N=C(N)S[C@@]2(S(C)(=O)=O)C[C@H]21 ; condition: microsomal CLint strictly below 70 µL/min/mg. Does it hold?
// result 1

// query Input CC(=O)[C@]12C[C@H]1[C@@](C)(c1cc(/C=C(\F)c3ccc(C#N)cn3)ccc1F)N=C(N)S2 ; condition: microsomal CLint strictly below 70 µL/min/mg. Does it hold?
// result 0

// query Input C[C@]1(c2cc(/C=C(\F)c3ccc(C#N)cn3)ccc2F)N=C(N)S[C@@]2(C(=O)N3CCOCC3)C[C@H]21 ; condition: microsomal CLint strictly below 70 µL/min/mg. Does it hold?
// result 1

// query Input CN(C)C(=O)[C@]12C[C@H]1[C@@](C)(c1cc(/C=C(\F)c3ccc(C#N)cn3)ccc1F)N=C(N)S2 ; condition: microsomal CLint strictly below 70 µL/min/mg. Does it hold?
// result 1

// query Input C[C@]1(c2cc(/C=C(\F)c3ccc(C#N)cn3)ccc2F)N=C(N)S[C@@]2(C(=O)N3CCCCC3)C[C@H]21 ; condition: microsomal CLint strictly below 70 µL/min/mg. Does it hold?
// result 0

// query Input C[C@]1(c2cc(/C=C(\F)c3cnc(C#N)cn3)ccc2F)N=C(N)S[C@@]2(C(=O)N3CCOCC3)C[C@H]21 ; condition: microsomal CLint strictly below 70 µL/min/mg. Does it hold?
// result 1

// query Input C[C@]1(c2cc(/C=C(\F)c3ccc(C#N)cn3)ccc2F)N=C(N)S[C@@]2(C(=O)N3CCCC3)C[C@H]21 ; condition: microsomal CLint strictly below 70 µL/min/mg. Does it hold?
// result 0

// query Input C[C@]1(c2cc(/C=C(\F)c3ccc(C#N)cn3)ccc2F)N=C(N)S[C@@]2(C(=O)N3CCC3)C[C@H]21 ; condition: microsomal CLint strictly below 70 µL/min/mg. Does it hold?
// result 0

// query Input CNC(=O)[C@]12C[C@H]1[C@@](C)(c1cc(/C=C(\F)c3ccc(C#N)cn3)ccc1F)N=C(N)S2 ; condition: microsomal CLint strictly below 70 µL/min/mg. Does it hold?
// result 1

* * *

- ASSAY TEXT: Half life in rat at 1 mg/kg, iv
- Format: ADME, organism-based
- CONDITION LABEL: in vivo
OBSERVABLE: half-life

// query What does the record list as half-life for C[C@]1(c2cc(/C=C(\F)c3ccc(C#N)cn3)ccc2F)N=C(N)S[C@@]2(C(=O)N3CCOCC3)C[C@H]21 ?
// result 5 h

* * *

For each entry below, report its logD value.
- ASSAY TEXT: Lipophilicity, log D of the compound at pH 7.4
- Format: physicochemical
- CONDITION LABEL: buffer

// query What does the record list as logD for C#CCOc1cnc(C(=O)Nc2cc(F)c(F)c([C@@]3(C)N=C(N)S[C@@]4(COC)C[C@H]43)c2)cn1 ?
// result 2.2

// query What does the record list as logD for C#CCOc1cnc(/C(F)=C/c2cc(F)c(F)c([C@@]3(C)N=C(N)S[C@@]4(COC)C[C@H]43)c2)cn1 ?
// result 3.1

// query What does the record list as logD for C[C@]1(c2cc(/C=C(\F)c3ccc(C#N)cn3)ccc2F)N=C(N)S[C@@]2(C(=O)N3CCOCC3)C[C@H]21 ?
// result 2.3

* * *

- ASSAY TEXT: Protein binding in rat plasma assessed as unbound fraction by at 10 mg/kg, po
- Type: ADME, organism-based
- CONDITION LABEL: in vivo
OBSERVABLE: Fu
Please respond with just the number, no unit label.

// query What does the record list as Fu for C[C@]1(c2cc(/C=C(\F)c3ccc(C#N)cn3)ccc2F)N=C(N)S[C@@]2(C(=O)N3CCOCC3)C[C@H]21 ?
// result 0.03

* * *

For each entry below, report its efflux ratio value.
- TARGET SYSTEM: MDR1 (ABCB1, P-glycoprotein) (Homo sapiens)
- Sequence (P08183 whole entry): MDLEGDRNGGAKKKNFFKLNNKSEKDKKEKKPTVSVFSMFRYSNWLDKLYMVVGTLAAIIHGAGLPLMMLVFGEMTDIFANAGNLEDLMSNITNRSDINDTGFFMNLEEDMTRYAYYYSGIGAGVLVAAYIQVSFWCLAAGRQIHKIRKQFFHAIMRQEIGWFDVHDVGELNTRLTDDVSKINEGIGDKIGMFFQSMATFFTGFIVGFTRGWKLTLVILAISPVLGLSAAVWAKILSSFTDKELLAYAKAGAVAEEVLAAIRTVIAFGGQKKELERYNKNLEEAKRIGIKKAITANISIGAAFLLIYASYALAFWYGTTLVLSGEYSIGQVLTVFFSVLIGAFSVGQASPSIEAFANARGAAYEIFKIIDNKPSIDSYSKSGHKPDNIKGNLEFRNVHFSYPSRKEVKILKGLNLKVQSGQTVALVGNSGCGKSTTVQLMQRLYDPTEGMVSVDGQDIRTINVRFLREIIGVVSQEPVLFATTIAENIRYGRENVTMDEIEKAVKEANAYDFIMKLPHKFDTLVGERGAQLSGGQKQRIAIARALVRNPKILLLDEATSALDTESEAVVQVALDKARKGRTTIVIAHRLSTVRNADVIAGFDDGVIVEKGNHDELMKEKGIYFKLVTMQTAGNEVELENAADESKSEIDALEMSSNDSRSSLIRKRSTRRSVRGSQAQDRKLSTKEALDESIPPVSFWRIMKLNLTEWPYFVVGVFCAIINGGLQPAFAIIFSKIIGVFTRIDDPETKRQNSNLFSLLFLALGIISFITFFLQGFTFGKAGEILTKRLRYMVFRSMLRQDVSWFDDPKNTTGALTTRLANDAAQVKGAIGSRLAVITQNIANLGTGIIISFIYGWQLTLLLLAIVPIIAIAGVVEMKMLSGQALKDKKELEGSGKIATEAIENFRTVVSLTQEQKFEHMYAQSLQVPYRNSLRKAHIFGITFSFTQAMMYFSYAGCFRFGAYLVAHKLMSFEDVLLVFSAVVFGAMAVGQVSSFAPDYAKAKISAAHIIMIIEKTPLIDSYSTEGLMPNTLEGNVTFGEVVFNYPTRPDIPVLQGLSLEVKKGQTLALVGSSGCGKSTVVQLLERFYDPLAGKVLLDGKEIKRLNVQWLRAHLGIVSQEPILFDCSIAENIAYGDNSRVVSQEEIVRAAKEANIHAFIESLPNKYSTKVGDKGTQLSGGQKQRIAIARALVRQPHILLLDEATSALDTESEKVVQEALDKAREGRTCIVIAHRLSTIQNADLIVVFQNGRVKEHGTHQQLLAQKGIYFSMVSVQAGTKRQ
- ASSAY TEXT: Substrate activity at human MDR1 expressed in pig LLC-PK1 cells assessed as efflux ratio
- Assay type: ADME, cell-based
Please respond with just the number, no unit label.

// query What does the record list as efflux ratio for COC[C@]12C[C@H]1[C@@](CF)(c1cc(/C=C/c3ccc(Cl)cn3)ccc1F)N=C(N)S2 ?
// result 2.7

// query What does the record list as efflux ratio for C[C@]1(c2cc(/C=C(\F)c3ccc(C#N)cn3)ccc2F)N=C(N)S[C@@]2(C(=O)N3CCOCC3)C[C@H]21 ?
// result 4.7

// query What does the record list as efflux ratio for COC[C@]12C[C@H]1[C@@](CF)(c1cc(/C=C(\F)c3ccc(Cl)cn3)ccc1F)N=C(N)S2 ?
// result 3.1

// query What does the record list as efflux ratio for COC[C@]12C[C@H]1[C@@](CF)(c1cc(NC(=O)c3ccc(Cl)cn3)ccc1F)N=C(N)S2 ?
// result 2.9

// query What does the record list as efflux ratio for COC[C@]12C[C@H]1[C@@](CF)(c1cc(/C=C(/F)c3ccc(Cl)cn3)ccc1F)N=C(N)S2 ?
// result 1
